Assay: protein stability index of a GFP-peptide fusion (yeast GPS) (PSI 1-4); higher = more stable; sorted into four equal gates, so the index is relative within each strain
Settings: ubr1∆
Property name: protein stability index
Quick one: just the number, no unit, thanks!

May I ask what protein stability index has been recorded for KEECQIEDDGIIESHLI [CSN9] ?
3.02

May I ask what protein stability index has been recorded for SRSSVCVKAIEALFQSR [YCG1] ?
2.97

May I ask what protein stability index has been recorded for HIEGVVILKKNPDYREE [RPN1] ?
3.07

May I ask what protein stability index has been recorded for LTFMTCNSLHIPQDFEN [ESC2] ?
2.66

May I ask what protein stability index has been recorded for QRQKTYVERFETQLKVV [SMC1] ?
1.24

May I ask what protein stability index has been recorded for KRSFSSTLKSFFTNPNK [YOR098C/NUP1] ?
2.28

May I ask what protein stability index has been recorded for NANRVFRTRFQDGTSVV [SMC2] ?
2.34

May I ask what protein stability index has been recorded for TEAGFFAIRDDRDHINP [RPT4] ?
3.27

May I ask what protein stability index has been recorded for TSGKVELPKKLLNLPPF [SRB8] ?
2.55

May I ask what protein stability index has been recorded for YRFFKKISEDPVKALNE [SNF12] ?
3.52

May I ask what protein stability index has been recorded for HHSWSQSDLEIITQYVF [ARP9] ?
3.08

May I ask what protein stability index has been recorded for LVQLKKFSDLKFILQIL [YML103C/NUP188] ?
1.44

May I ask what protein stability index has been recorded for GLVNHRVGVKLKFNSTE [SMX3] ?
1.48

May I ask what protein stability index has been recorded for NPIIENNVDNKYKSGGK [SSN2] ?
3.07

May I ask what protein stability index has been recorded for KEDADLKRMEILKSPHL [SIR4] ?
3.08

May I ask what protein stability index has been recorded for LEQQKQPTGLLKGLNGF [YMR153W/NUP53] ?
3.34

May I ask what protein stability index has been recorded for VLKEKDVPAYNVTSFMP [SRB8] ?
3

May I ask what protein stability index has been recorded for FELFDNKTAHLSIPGKS [SNU114] ?
2.1

May I ask what protein stability index has been recorded for AQGVAVQLKRQPAQPRE [RPL21A] ?
1.88

May I ask what protein stability index has been recorded for NSNSNQQSTDADEDDED [RPT1] ?
2.37

May I ask what protein stability index has been recorded for TEKLSPLASEESLTNSN [YGL100W/SEH1] ?
3.32

May I ask what protein stability index has been recorded for NGSSDASSLRFGNSLSN [YDL088C/ASM4] ?
2.56

May I ask what protein stability index has been recorded for SRPEYSCTFWSDKESNA [YJL039C/NUP192] ?
2.57

May I ask what protein stability index has been recorded for FSNRFLPVASPFHSHLL [FAS1] ?
2.76

Values from the supplement of paper PMC9732359
